# measuredTarget: Potassium voltage-gated channel subfamily KQT member 2 (Rattus norvegicus) (UniProt O88943)
# Sequence (O88943 whole entry, looked up): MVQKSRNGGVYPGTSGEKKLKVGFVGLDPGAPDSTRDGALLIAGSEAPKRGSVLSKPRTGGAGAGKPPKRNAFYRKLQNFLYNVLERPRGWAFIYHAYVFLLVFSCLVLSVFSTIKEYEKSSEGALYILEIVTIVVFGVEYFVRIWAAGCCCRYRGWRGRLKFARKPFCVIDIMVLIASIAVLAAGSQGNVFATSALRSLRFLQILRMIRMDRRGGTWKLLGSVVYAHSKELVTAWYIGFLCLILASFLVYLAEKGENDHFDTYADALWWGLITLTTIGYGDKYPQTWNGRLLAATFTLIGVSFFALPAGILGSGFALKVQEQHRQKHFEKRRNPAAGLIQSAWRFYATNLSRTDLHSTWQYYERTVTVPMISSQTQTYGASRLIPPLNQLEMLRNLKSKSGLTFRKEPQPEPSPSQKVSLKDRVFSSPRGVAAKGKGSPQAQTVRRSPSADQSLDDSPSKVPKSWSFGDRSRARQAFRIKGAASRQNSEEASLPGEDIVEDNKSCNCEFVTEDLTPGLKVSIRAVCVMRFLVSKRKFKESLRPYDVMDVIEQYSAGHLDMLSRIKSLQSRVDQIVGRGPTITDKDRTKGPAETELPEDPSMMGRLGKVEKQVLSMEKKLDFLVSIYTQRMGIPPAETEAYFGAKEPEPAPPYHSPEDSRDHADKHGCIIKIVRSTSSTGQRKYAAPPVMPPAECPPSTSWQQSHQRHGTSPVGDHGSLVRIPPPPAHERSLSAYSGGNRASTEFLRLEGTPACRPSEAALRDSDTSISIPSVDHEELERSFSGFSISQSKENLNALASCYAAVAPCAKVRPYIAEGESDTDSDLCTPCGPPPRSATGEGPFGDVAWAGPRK
# experimentDescription: KCNQ2 potentiation in CHO cells – cell-based, FluxOR thallium flux, counter-screen for hERG block protector project, confirmation (AID 1942)
# experimentalConditions: FluxOR thallium flux fluorescence, at 10 µM
About 580 (24%) of roughly 2,400 compounds were called active.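 The calls were made as follows: active = activity change at or above the mean plus 3 SD of buffer wells without dofetilide, per plate; inactive = the rest.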 These entries were drawn from the full list.
Entry note: the call must match one of YES (active), NO (inactive)

Past entries and their recorded results:
# structureSmiles, group
rows = [
    ("CN(c1cccc(NS(=O)(=O)c2cccc([N+](=O)[O-])c2)c1)S(C)(=O)=O", "NO"),
    ("O=c1c(O)c(-c2ccc3c(c2)OCO3)oc2ccccc12", "YES"),
    ("Cn1nc(C(=O)Nc2ccc3c(c2)OCO3)c2ccccc2c1=O", "NO"),
    ("O=c1c(O)c(-c2cccs2)oc2ccccc12", "YES"),
]

Now look at this one.
INPUT: Recorded test outcome, item O=C(c1c(O)c2ccccc2oc1=O)C1CCCCC1
OUTPUT: NO
